- System: Acinetobacter baumannii strains
- ASSAY TEXT: Antibiotic susceptibility test (CLSI disk diffusion test method, read per CLSI 2016); note: key: ‘S’ means susceptible; ‘I’ means intermediate; ‘R’ means resistant
- Format: cell-based
- TEST PARAMETERS: host strain YMC14/01/R671
MEASUREMENT LABEL: antibiotic susceptibility class

{"MOL": "NCC[C@H](O)C(=O)N[C@@H]1C[C@H](N)[C@@H](O[C@H]2O[C@H](CN)[C@@H](O)[C@H](O)[C@H]2O)[C@H](O)[C@H]1O[C@H]1O[C@H](CO)[C@@H](O)[C@H](N)[C@H]1O", "MEASURED TARGET": "Acinetobacter baumannii strains", "MEASUREMENT LABEL": "antibiotic susceptibility class", "MEAS VALUE": "R"}
{"MOL": "CO/N=C(\\C(=O)N[C@@H]1C(=O)N2C(C(=O)O)=C(COC(C)=O)CS[C@H]12)c1csc(N)n1", "MEASURED TARGET": "Acinetobacter baumannii strains", "MEASUREMENT LABEL": "antibiotic susceptibility class", "MEAS VALUE": "R"}
{"MOL": "CCN1CCN(C(=O)N[C@@H](C(=O)N[C@@H]2C(=O)N3[C@@H]2SC(C)(C)[C@@H]3C(=O)O)c2ccccc2)C(=O)C1=O", "MEASURED TARGET": "Acinetobacter baumannii strains", "MEASUREMENT LABEL": "antibiotic susceptibility class", "MEAS VALUE": "R"}

###

- System: Acinetobacter baumannii strains
- ASSAY TEXT: Antibiotic susceptibility test (CLSI disk diffusion test method, read per CLSI 2016); note: key: ‘S’ means susceptible; ‘I’ means intermediate; ‘R’ means resistant
- Type: cell-based
- TEST PARAMETERS: host strain YMC14/01/R198
MEASUREMENT LABEL: antibiotic susceptibility class

{"MOLECULE": "CN(C)c1ccc(O)c2c1C[C@H]1C[C@H]3[C@H](N(C)C)C(O)=C(C(N)=O)C(=O)[C@@]3(O)C(O)=C1C2=O [Minocycline, minocycline]", "antibiotic susceptibility class": "I"}
{"MOLECULE": "NCC[C@H](O)C(=O)N[C@@H]1C[C@H](N)[C@@H](O[C@H]2O[C@H](CN)[C@@H](O)[C@H](O)[C@H]2O)[C@H](O)[C@H]1O[C@H]1O[C@H](CO)[C@@H](O)[C@H](N)[C@H]1O [Amikacin, amikacin]", "antibiotic susceptibility class": "R"}
{"MOLECULE": "CO/N=C(\\C(=O)N[C@@H]1C(=O)N2C(C(=O)O)=C(COC(C)=O)CS[C@H]12)c1csc(N)n1 [Cefotaxime, cefotaxime]", "antibiotic susceptibility class": "R"}
{"MOLECULE": "CCN1CCN(C(=O)N[C@@H](C(=O)N[C@@H]2C(=O)N3[C@@H]2SC(C)(C)[C@@H]3C(=O)O)c2ccccc2)C(=O)C1=O [Piperacillin, piperacillin]", "antibiotic susceptibility class": "R"}
{"MOLECULE": "C[C@H]1COc2c(N3CCN(C)CC3)c(F)cc3c(=O)c(C(=O)O)cn1c23 [Levofloxacin, levofloxacin]", "antibiotic susceptibility class": "R"}
{"MOLECULE": "CC(C)(O/N=C(\\C(=O)N[C@@H]1C(=O)N2C(C(=O)[O-])=C(C[n+]3ccccc3)CS[C@H]12)c1csc(N)n1)C(=O)O [Ceftazidime, ceftazidime]", "antibiotic susceptibility class": "R"}
{"MOLECULE": "C[C@@H](O)[C@H]1C(=O)N2C(C(=O)O)=C(SCCN=CN)C[C@H]12 [Imipenem, imipenem]", "antibiotic susceptibility class": "R"}
{"MOLECULE": "C[C@@H](O)[C@H]1C(=O)N2C(C(=O)O)=C(S[C@@H]3CN[C@H](C(=O)N(C)C)C3)[C@H](C)[C@H]12 [Meropenem, meropenem]", "antibiotic susceptibility class": "R"}

Alright, here's another molecule for you.
Task: Could you share which antibiotic susceptibility class value was measured for CN(C)c1cc(NC(=O)CNC(C)(C)C)c(O)c2c1C[C@H]1C[C@H]3[C@H](N(C)C)C(O)=C(C(N)=O)C(=O)[C@@]3(O)C(O)=C1C2=O [Tigecycline, tigecycline] ?
Result: S
